Target: T1, human C1s (human, UniProt P09871 16-688)
T1 construct: Analyte in the Biacore assays; also called hC1s; serum-derived human C1s (CompTech)
T1 sequence: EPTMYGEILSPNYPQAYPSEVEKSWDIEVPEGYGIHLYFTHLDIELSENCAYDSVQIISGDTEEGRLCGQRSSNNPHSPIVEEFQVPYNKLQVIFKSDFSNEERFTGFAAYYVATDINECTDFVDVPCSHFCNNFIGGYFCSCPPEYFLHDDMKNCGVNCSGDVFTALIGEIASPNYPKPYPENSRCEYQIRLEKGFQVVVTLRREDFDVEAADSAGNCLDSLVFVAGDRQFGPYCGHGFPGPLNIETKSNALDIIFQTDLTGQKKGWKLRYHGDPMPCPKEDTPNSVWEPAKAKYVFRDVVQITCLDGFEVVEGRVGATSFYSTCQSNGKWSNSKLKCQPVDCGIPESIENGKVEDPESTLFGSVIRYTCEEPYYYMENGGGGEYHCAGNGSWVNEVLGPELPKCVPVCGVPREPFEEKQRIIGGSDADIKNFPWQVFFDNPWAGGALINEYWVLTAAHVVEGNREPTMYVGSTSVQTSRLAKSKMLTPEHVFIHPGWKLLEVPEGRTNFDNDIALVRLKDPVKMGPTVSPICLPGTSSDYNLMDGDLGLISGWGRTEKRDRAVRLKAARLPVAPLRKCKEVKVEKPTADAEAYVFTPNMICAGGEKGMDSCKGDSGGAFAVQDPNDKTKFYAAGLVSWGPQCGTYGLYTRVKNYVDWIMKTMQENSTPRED
Assay: SPR (Biacore T200, 37C), Ab captured on protein A/G; pH 5.8, 3 uM Ca
QUANTITY_MEASURED: pKd
The meaning of pKd here: minus log10 of the concentration in molar units.

// pKd lookup, binder = C1_IPN92H0194-SG4GK/IPN93L0024-SK1 (antibody, human IgG4 S228P, kappa, name in Kabat numbering, V domains shown, Substitutions from IPN009VH2, Kabat numbering; also called IPN92H0194/IPN93L0024) VH: EVMLVESGGGLVKPGGSLRLSCAASGFTFSNYAMSWVRQAPGKGLEWVATISSGGSHTYYLDSVKERFTISRDNSKDTLYLQMNSLRAEDTALYYCARLFTGHAMDYWGQGTLVTVSS VL: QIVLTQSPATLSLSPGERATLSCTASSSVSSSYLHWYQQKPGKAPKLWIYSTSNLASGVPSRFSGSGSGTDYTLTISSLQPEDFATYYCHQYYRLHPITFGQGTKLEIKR , result: 8.19

// pKd lookup, binder = C1_IPN92H0145-SG4GK/IPN93L0024-SK1 (antibody, human IgG4 S228P, kappa, name in Kabat numbering, V domains shown, Substitutions from IPN009VH2, Kabat numbering; also called IPN92H0145/IPN93L0024) VH: EVMLVESGGGLVKPGGSLRLSCAASGFTFSNYAMSWVRQAPGKGLEWVATISSGGSRTYYLDSVKGRFTISRDNSKDTLYLQMNSLRAEDTALYYCARLFTGHAMDYWGQGTLVTVSS VL: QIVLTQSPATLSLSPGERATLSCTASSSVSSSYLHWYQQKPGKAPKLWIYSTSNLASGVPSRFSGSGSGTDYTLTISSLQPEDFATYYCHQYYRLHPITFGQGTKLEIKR , result: 8.19

src = patent US20210032365A1
